Tested on: Leimyosarcoma tumour cell line SK-UT-1B
Assay: Inhibition of the proliferation of cultivated human tumour cells (Test 2)
Assay type: cell-based
Settings: SK-UT-1B cells; 48 hours' incubation, then 14C-thymidine for a further 24 hours; inhibition of incorporated 14C-thymidine; read-out: Inhibition of SKUT-1B-proliferation IC50
From the text: Inhibition of the Proliferation of Cultivated Human Tumour Cells Cells of the Leimyosarcoma tumour cell line SK-UT-1B (obtained from the American Type Culture Collection (ATCC)) were cultivated in Minimum Essential Medium with non-essential amino acids (Gibco), supplemented with sodium pyruvate (1 mmol), glutamine (2 mmol) and 10% foetal calf serum (Gibco) and harvested during the log-growth phase. […]
Parameter: IC50 (nM)
The answer is to be given in nM; state only the numeric part.

Would you kindly share the measured IC50 for `CN(C)CCN(c1ccc(N/C(=C2\C(=O)Nc3ccccc32)c2ccccc2)cc1)S(C)(=O)=O` ?
150

---

Here, each record is paired with measured melting point data.

| Compound Structure String | Test Result |
| --- | --- |
| N=C(N)c1cccc(N/C(=C2\C(=O)Nc3ccccc32)c2ccccc2)c1 | 235 to 237 °C |
| CC(=O)NCCc1ccc(N/C(=C2\C(=O)Nc3ccc([N+](=O)[O-])cc32)c2ccccc2)cc1 | 306 to 307 °C |
| O=C1Nc2ccc([N+](=O)[O-])cc2/C1=C(/Nc1ccc(CN2CCC2)cc1)c1ccccc1 | 228 to 229 °C |
| O=C1Nc2ccc(Br)cc2/C1=C(/Nc1ccc(CN2CCCCC2)cc1)c1ccccc1 | 170 °C |
| CN(C)CCN(C(=O)c1ccccc1)c1ccc(N/C(=C2\C(=O)Nc3ccccc32)c2ccccc2)cc1 | 272 to 274 °C |

I am curious: what melting point value has been reported for `CCS(=O)(=O)N(CC(=O)O)c1ccc(N/C(=C2\C(=O)Nc3ccccc32)c2ccccc2)cc1` ?
240 to 242 °C

---

Reported melting point is given for each of the following compounds.

| Compound Structure String | melting point |
| --- | --- |
| Br.COCCNCCc1ccc(N/C(=C2\C(=O)Nc3ccc([N+](=O)[O-])cc32)c2ccccc2)cc1 | 297 to 299 °C |
| CS(=O)(=O)Nc1ccc(N/C(=C2\C(=O)Nc3ccc([N+](=O)[O-])cc32)c2ccccc2)cc1 | 344 to 346 °C |
| CNC(=O)c1cccc(N/C(=C2\C(=O)Nc3ccccc32)c2ccccc2)c1 | 250 to 252 °C |

// moving on: another record for melting point
Give its melting point value. Item: `COC1CCN(CCc2ccc(N/C(=C3\C(=O)Nc4ccc([N+](=O)[O-])cc43)c3ccccc3)cc2)CC1`
212 to 214 °C

---

Parameter: melting point

Here's what some known entries look like.
| Compound Structure String | Test Result |
| --- | --- |
| CCCC(=O)N(CCN(C)C)c1ccc(N/C(=C2\C(=O)Nc3ccc([N+](=O)[O-])cc32)c2ccccc2)cc1 | 275 to 277 °C |
| CN(C)C(=N)c1cccc(N/C(=C2\C(=O)Nc3ccccc32)c2ccccc2)c1 | 238 to 242 °C |
| CN(C)C(=O)C1CCN(CCc2ccc(N/C(=C3\C(=O)Nc4ccc([N+](=O)[O-])cc43)c3ccccc3)cc2)CC1 | 288 °C (dec.) |
| COC(=O)c1ccccc1N/C(=C1\C(=O)Nc2ccccc21)c1ccccc1 | 241 to 244 °C |
| CNC(=O)CN(c1cccc(N/C(=C2\C(=O)Nc3ccccc32)c2ccccc2)c1)S(C)(=O)=O | 163 °C |

For the molecule `CN(C)CC(=O)Nc1ccc(N/C(=C2\C(=O)Nc3ccc([N+](=O)[O-])cc32)c2ccccc2)cc1` , what melting point is on record?
254 to 257 °C

So what does the record say about melting point for `CN(CC(=O)O)S(=O)(=O)c1ccc(N/C(=C2\C(=O)Nc3ccccc32)c2ccccc2)cc1` ?
237 °C (dec.)

---

Listed next: entries and their corresponding melting point.

| Compound | melting point |
| --- | --- |
| CC(C)(C)OC(=O)NCc1ccc(N/C(=C2\C(=O)Nc3ccc([N+](=O)[O-])cc32)c2ccccc2)cc1 [Example 113] | 234 to 236 °C (dec.) |
| O=C1Nc2ccc([N+](=O)[O-])cc2/C1=C(/Nc1ccc(CN2CCC(O)CC2)cc1)c1ccccc1 [Example 168] | 155 °C |
| CCOC(=O)CN(C)C(=O)c1ccc(N/C(=C2\C(=O)Nc3ccccc32)c2ccccc2)cc1 [Example 394] | 95 to 98 °C |
| CNc1cccc(N/C(=C2\C(=O)Nc3ccccc32)c2ccccc2)c1 [Example 37] | 247 to 248 °C |
| CN(C)CCOc1ccc(N/C(=C2\C(=O)Nc3ccccc32)c2ccccc2)cc1 [Example 284] | 258 to 260 °C |
| CC(C)CNCc1ccc(N/C(=C2\C(=O)Nc3ccc([N+](=O)[O-])cc32)c2ccccc2)cc1 [Example 164] | 208 °C |
| CCCS(=O)(=O)N(CCN(C)C)c1ccc(N/C(=C2\C(=O)Nc3ccccc32)c2ccccc2)cc1 [Example 311] | 245 °C |
| CCC(=O)N(CC(=O)NC)c1ccc(N/C(=C2\C(=O)Nc3ccccc32)c2ccccc2)cc1 [Example 358] | 268 °C |

--- query ---
Quick check: melting point of CN(C(=O)CN1CCOCC1)c1ccc(N/C(=C2\C(=O)Nc3ccc([N+](=O)[O-])cc32)c2ccccc2)cc1 [Example 102] ?
293 to 295 °C

---

Quick list: melting point per entry.

Example molecules with recorded melting point:
| Compound Structure String | melting point |
| --- | --- |
| CN(C)CCNC(=O)c1ccc(N/C(=C2\C(=O)Nc3ccccc32)c2ccccc2)cc1 | 145 to 147 °C |
| O=C(CN1CCOCC1)Nc1ccc(N/C(=C2\C(=O)Nc3ccccc32)c2ccccc2)cc1 | 246 to 248 °C |
| CN(C)CCN(C=O)c1ccc(N/C(=C2\C(=O)Nc3ccccc32)c2ccccc2)cc1 | 246 to 248 °C |

Pending molecule:
So what does the record say about melting point for `CS(=O)(=O)N(CCN1CCOCC1)c1cccc(N/C(=C2\C(=O)Nc3ccccc32)c2ccccc2)c1` ?
177 to 179 °C

---

Known melting point of a selection of compounds

Illustrative cases are given below, each with its answer.
| Compound | melting point |
| --- | --- |
| O=C(O)COc1ccc(N/C(=C2\C(=O)Nc3ccccc32)c2ccccc2)cc1 [Example 290] | 238 to 240 °C |
| CCCC(=O)N(CCN(C)C)c1ccc(N/C(=C2\C(=O)Nc3ccccc32)c2ccccc2)cc1 [Example 343] | 268 to 270 °C |
| CN(C)S(=O)(=O)c1ccc(N/C(=C2\C(=O)Nc3ccccc32)c2ccccc2)cc1 [Example 405] | 280 °C |
| O=C1Nc2ccc([N+](=O)[O-])cc2/C1=C(/Nc1ccc(CN2CCCCC2)cc1)c1ccccc1 [Example 170] | 242 to 243 °C |
| COc1ccc(/C(Nc2ccc(CN3CCCCC3)cc2)=C2/C(=O)Nc3ccc([N+](=O)[O-])cc32)cc1 [Example 441] | 230 to 233 °C |

Requested read-out: melting point. Entry: CN(C)C(=O)CN(c1ccc(N/C(=C2\C(=O)Nc3ccccc32)c2ccccc2)cc1)S(=O)(=O)c1ccccc1 [Example 205]
255 to 258 °C

Which measured melting point value corresponds to CS(=O)(=O)N(CCN1CCOCC1)c1ccc(N/C(=C2\C(=O)Nc3ccccc32)c2ccccc2)cc1 [Example 189] ?
249 to 250 °C

Sample CN(C)C(=O)CN(c1ccc(N/C(=C2\C(=O)Nc3ccc([N+](=O)[O-])cc32)c2ccccc2)cc1)S(C)(=O)=O [Example 201] — what was its melting point?
277 to 280 °C

Please look up its melting point: CC(C)C(=O)N(CCN1CCOCC1)c1ccc(N/C(=C2\C(=O)Nc3ccc([N+](=O)[O-])cc32)c2ccccc2)cc1 [Example 336]
254 °C

Which value of melting point has been reported for CN(C)CCCc1ccc(N/C(=C2\C(=O)Nc3ccc([N+](=O)[O-])cc32)c2ccccc2)cc1 [Example 283] in the records?
269 °C (dec.)

---

Parameter: melting point

# melting point lookup, item Nc1cccc(N/C(=C2\C(=O)Nc3ccccc32)c2ccccc2)c1 [Example 69]
267 to 268 °C

---

# Lookup of reported melting point keyed by entry

Consider the reported melting point for these compounds:
| Compound Structure String | Test Result |
| --- | --- |
| CN(CC(=O)O)S(=O)(=O)c1ccc(N/C(=C2\C(=O)Nc3ccc([N+](=O)[O-])cc32)c2ccccc2)cc1 | 259 to 260 °C |
| CN(Cc1ccc(N/C(=C2\C(=O)Nc3ccc([N+](=O)[O-])cc32)c2ccccc2)cc1)C1CC1 | 216 to 217 °C |
| CCCNCc1ccc(N/C(=C2\C(=O)Nc3ccc([N+](=O)[O-])cc32)c2ccccc2)cc1 | 201 to 202 °C |
| Cc1ccc(/C(Nc2ccc(CN(C)C)cc2)=C2/C(=O)Nc3ccc([N+](=O)[O-])cc32)cc1 | 274 to 276 °C |
| CC(=O)NCC(=O)Nc1ccc(N/C(=C2\C(=O)Nc3ccccc32)c2ccccc2)cc1 | 245 to 247 °C |
| O=C(O)CNC(=O)c1ccc(N/C(=C2\C(=O)Nc3ccccc32)c2ccccc2)cc1 | 245 to 247 °C |

Proceeding to the next compound to report its melting point.
Quick check: melting point of `CN(C(=O)CCNC(=O)OC(C)(C)C)c1ccc(N/C(=C2\C(=O)Nc3ccccc32)c2ccccc2)cc1` ?
246 to 248 °C

Hey, just so you know, these numbers are from patent US6855710B2.
